Property: T/C; scope: individual compounds
system: CD2F1 mice, L1210 leukemia ip, survival T/C; assay: NCI In Vivo Anticancer Drug Screen. Data for tumor model L1210 Leukemia (intraperitoneal) in CD2F1 (CDF1) mice; conditions: endpoint: mean survival time; dose: 50.0 mg/kg/injection; schedule: Q01DX009 (ip); vehicle: saline with Tween-80; higher = longer survival
Toxic doses and inconclusive results are not listed.

Solved cases (3 shown):
CC(CCc1ccccc1)NC(C)C(O)c1ccc(O)cc1 (stereo unspecified) | 96 % of control
CCCCCC(=O)CCCC | 109 % of control
O[O][Sn][c]1ccccc1 | 93 % of control

Q: // returns reported T/C for input `CC(=O)Nc1ccc(/C=N/NC(=O)CNC(=O)NCc2ccco2)cc1`
A: 96 % of control
